Quick reference for MIC among some compounds
test system: Acinetobacter baumannii; assay: Antimicrobial activity against carbapenemase-producing Acinetobacter baumannii ACM 11 assessed as inhibition of bacterial growth incubated for 18 hrs by CLSI based serial broth dilution method; format: functional; conditions: ACM 11, 18 h
Where a SMILES comes first, the peptide text is derived from it. [ ]: non-standard residue; d: D form. The star is where a group is joined. d(aIle) = CC[C@H](C)[C@@H](N)C(=O)O; dOrn = NCCC[C@@H](N)C(=O)O; dDab = NCC[C@@H](N)C(=O)O; Octanoyl = CCCCCCCC(=O)*; Orn = NCCC[C@H](N)C(=O)O
// return numeric value only (unit: µg/mL, not printed)

Some solved entries appear below for comparison.
- COMPOUND: "CCCCCCCC(=O)N[C@@H](C(=O)N[C@H](CCCCN)C(=O)NCC(=O)N[C@H](CO)C(=O)N[C@H](Cc1c[nH]c2ccccc12)C(=O)N[C@@H](CO)C(=O)N[C@@H](CCCCN)C(=O)N[C@H](CCN)C(=O)N[C@@H](Cc1ccccc1)C(=O)N[C@@H](CCC(=O)O)C(=O)N[C@H](C(=O)N[C@@H](C(=O)N[C@@H](C)C(=O)O)[C@@H](C)CC)C(C)C)C(C)C (Octanoyl-[dV][dK]G[dS][dW]SK[dDab]FEV[d(aIle)]A-OH)"
  ENDPOINT UNIT: "µg/mL"
  MIC: 25
- COMPOUND: "CCCCCCCC(=O)N[C@@H](C(=O)N[C@H](CCCCN)C(=O)NCC(=O)N[C@H](CO)C(=O)N[C@H](Cc1c[nH]c2ccccc12)C(=O)N[C@@H](CO)C(=O)N[C@@H](CCCCN)C(=O)N[C@H](CCCCN)C(=O)N[C@@H](Cc1ccccc1)C(=O)N[C@@H](CCC(=O)O)C(=O)N[C@H](C(=O)N[C@@H](C(=O)N[C@@H](C)C(=O)O)[C@@H](C)CC)C(C)C)C(C)C (HELM PEPTIDE1{[CCCCCCCC(=O)[*:2]].[dV].[dK].G.[dS].[dW].S.K.[dK].F.E.V.[CC[C@H](C)[C@@H](N[*:1])C(=O)[*:2]].A}$$$$V2.0)"
  ENDPOINT UNIT: "µg/mL"
  MIC: 25

Prompt: Recall the recorded MIC for CCCCCCCC(=O)N[C@@H](C(=O)N[C@H](CCCN)C(=O)NCC(=O)N[C@H](CO)C(=O)N[C@H](Cc1c[nH]c2ccccc12)C(=O)N[C@@H](CO)C(=O)N[C@@H](CCCN)C(=O)N[C@H](CCCN)C(=O)N[C@@H](Cc1ccccc1)C(=O)N[C@@H](CCC(=O)O)C(=O)N[C@H](C(=O)N[C@@H](C(=O)N[C@@H](C)C(=O)O)[C@@H](C)CC)C(C)C)C(C)C (Octanoyl-[dV][dOrn]G[dS][dW]S[Orn][dOrn]FEV[d(aIle)]A-OH) with Acinetobacter baumannii and state it.
Completion: 50

###

system: Acinetobacter baumannii; assay: Antimicrobial activity against carbapenemase-producing Acinetobacter baumannii ACM 11 assessed as inhibition of bacterial growth incubated for 18 hrs by CLSI based serial broth dilution method; format: functional; conditions: ACM 11, 18 h
Where a SMILES comes first, the peptide text is derived from it. [ ]: non-standard residue; d: D form. The star is where a group is joined. d(aIle) = CC[C@H](C)[C@@H](N)C(=O)O; dOrn = NCCC[C@@H](N)C(=O)O; dDab = NCC[C@@H](N)C(=O)O; Octanoyl = CCCCCCCC(=O)*; Orn = NCCC[C@H](N)C(=O)O; Dab = NCC[C@H](N)C(=O)O
ASSAY ENDPOINT: MIC
Report the figure along with its unit, number first.

Some solved entries appear below for comparison.
- COMPOUND: "CCCCCCCC(=O)N[C@@H](C(=O)N[C@H](CCN)C(=O)NCC(=O)N[C@H](CO)C(=O)N[C@H](Cc1c[nH]c2ccccc12)C(=O)N[C@@H](CO)C(=O)N[C@@H](CCN)C(=O)N[C@H](CCN)C(=O)N[C@@H](Cc1ccccc1)C(=O)N[C@@H](CCC(=O)O)C(=O)N[C@H](C(=O)N[C@@H](C(=O)N[C@@H](C)C(=O)O)[C@@H](C)CC)C(C)C)C(C)C"
  ASSAY ENDPOINT: "MIC"
  ENDPOINT RESULT: "25 µg/mL"
- COMPOUND: "CCCCCCCC(=O)N[C@@H](C(=O)N[C@H](CCCN)C(=O)NCC(=O)N[C@H](CO)C(=O)N[C@H](Cc1c[nH]c2ccccc12)C(=O)N[C@@H](CO)C(=O)N[C@@H](CCCN)C(=O)N[C@H](CCN)C(=O)N[C@@H](Cc1ccccc1)C(=O)N[C@@H](CCC(=O)O)C(=O)N[C@H](C(=O)N[C@@H](C(=O)N[C@@H](C)C(=O)O)[C@@H](C)CC)C(C)C)C(C)C (Octanoyl-[dV][dOrn]G[dS][dW]S[Orn][dDab]FEV[d(aIle)]A-OH)"
  ASSAY ENDPOINT: "MIC"
  ENDPOINT RESULT: "50 µg/mL"

Proceed to the following item.
Prompt: Look up MIC for this compound: CCCCCCCC(=O)N[C@@H](C(=O)N[C@H](CCN)C(=O)NCC(=O)N[C@H](CO)C(=O)N[C@H](Cc1c[nH]c2ccccc12)C(=O)N[C@@H](CO)C(=O)N[C@@H](CCN)C(=O)N[C@H](CCN)C(=O)N[C@@H](Cc1ccccc1)C(=O)N[C@@H](CCC(=O)O)C(=O)N[C@H](C(=O)N[C@@H](C(=O)N[C@@H](C)C(=O)O)C(C)C)C(C)C)C(C)C (Octanoyl-[dV][dDab]G[dS][dW]S[Dab][dDab]FEV[dV]A-OH)
Completion: 100 µg/mL
